- MEASURED_ON: hepatitis C virus RNA dependant polymerase (NS5B) (Hepatitis C virus genotype 1b, UniProt P26663)
- Sequence (P26663 2420-3010): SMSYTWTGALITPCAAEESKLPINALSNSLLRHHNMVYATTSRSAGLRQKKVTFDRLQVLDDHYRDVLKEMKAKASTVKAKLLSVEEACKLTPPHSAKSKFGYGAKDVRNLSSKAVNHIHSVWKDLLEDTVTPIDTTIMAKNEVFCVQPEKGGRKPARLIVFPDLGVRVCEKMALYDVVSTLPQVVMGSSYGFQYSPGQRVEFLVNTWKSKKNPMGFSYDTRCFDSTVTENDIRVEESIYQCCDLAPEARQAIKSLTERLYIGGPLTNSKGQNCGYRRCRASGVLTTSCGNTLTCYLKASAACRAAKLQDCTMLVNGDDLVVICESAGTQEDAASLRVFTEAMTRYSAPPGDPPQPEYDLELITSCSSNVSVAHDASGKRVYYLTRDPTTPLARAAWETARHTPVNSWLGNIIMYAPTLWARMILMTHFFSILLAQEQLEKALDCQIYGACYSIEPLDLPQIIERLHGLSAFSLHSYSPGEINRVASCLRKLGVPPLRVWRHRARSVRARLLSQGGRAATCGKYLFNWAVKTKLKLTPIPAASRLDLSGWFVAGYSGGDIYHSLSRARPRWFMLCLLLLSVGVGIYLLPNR
- TEST_METHOD_NOTES: Inhibition of NS5B RNA dependent RNA polymerase activity
- Type: biochemical
- CONDITION_NOTES: Table 4; class ranges
- Experimental: A suitable assay is described in the examples. Inhibition of NS5B RNA Dependent RNA Polymerase Activity The compounds of the invention were tested for inhibitory activity against the hepatitis C virus RNA dependant polymerase (NS5B), according to protocol described in WO 03/010141
PARAMETER: IC50

- COC(=O)C1(NC(=O)c2ccc3c(C4CCCCC4)c(-c4ccoc4)n(CC(=O)N4CCOCC4)c3c2)CCCC1: 200 to 1000 nM
- NC(=O)C1(NC(=O)c2ccc3c(C4CCCCC4)c(-c4ccoc4)n(CC(=O)N4CCOCC4)c3c2)CCCCC1: 200 to 1000 nM
- CN1CCN(C(=O)Cn2c(-c3ccoc3)c(C3CCCCC3)c3ccc(C(=O)NCc4ccc(O)c(O)c4)cc32)CC1: < 200 nM
- Cc1c(C2(NC(=O)c3ccc4c(C5CCCCC5)c(-c5ccoc5)n(CC(=O)N5CCOCC5)c4c3)CCC2)oc2ccc(C(=O)O)cc12: < 200 nM
- O=C(NCc1ccc2c(c1)OCO2)c1ccc2c(C3CCCCC3)c(-c3ccoc3)n(CC(=O)N3CCOCC3)c2c1: 200 to 1000 nM
- CN1CCN(C(=O)Cn2c(-c3ccoc3)c(C3CCCCC3)c3ccc(C(=O)NCCN4CCOCC4)cc32)CC1: 200 to 1000 nM
- Cn1c(C2(NC(=O)c3ccc4c(C5CCCCC5)c(-c5ccoc5)n(CC(N)=O)c4c3)CCC2)nc2ccc(C=CC(=O)O)cc21: < 200 nM
- CN(C)C(=O)C1(NC(=O)c2ccc3c(C4CCCCC4)c(-c4ccoc4)n(CC(=O)N4CCC(N5CCCC5)CC4)c3c2)CCCC1: < 200 nM
- CN(C)C(=O)C1(NC(=O)c2ccc3c(C4CCCCC4)c(-c4ccoc4)n(CC(=O)N4CCOCC4)c3c2)CCCC1: < 200 nM
- CNC(=O)c1ccc2c(C3CCCCC3)c(-c3ccoc3)n(CC(=O)N(C)C)c2c1: 200 to 1000 nM
- CN1CCN(C(=O)Cn2c(-c3ccoc3)c(C3CCCCC3)c3ccc(C(=O)NC4CCN(Cc5ccccc5)C4)cc32)CC1 (stereo not drawn): 200 to 1000 nM
- CN1CCN(C(=O)Cn2c(-c3ccoc3)c(C3CCCCC3)c3ccc(C(=O)NC4CCS(=O)(=O)C4)cc32)CC1 (stereo not drawn): 1000 to 10000 nM
- O=C(O)C=Cc1ccc2nc(C3(NC(=O)c4ccc5c(C6CCCCC6)c(-c6ccoc6)n(CC(=O)N6CCOCC6)c5c4)CCC3)[nH]c2c1: < 200 nM
- CN1CCN(C(=O)Cn2c(-c3ccoc3)c(C3CCCCC3)c3ccc(C(=O)NCC(O)c4ccccc4)cc32)CC1 (stereo not drawn): 200 to 1000 nM
- COc1ccc([C@@H](C)NC(=O)c2ccc3c(C4CCCCC4)c(-c4ccoc4)n(CC(=O)N4CCOCC4)c3c2)cc1: 200 to 1000 nM
- COc1cccc([C@@H](C)NC(=O)c2ccc3c(C4CCCCC4)c(-c4ccoc4)n(CC(=O)N4CCN(C)CC4)c3c2)c1: < 200 nM
- Cn1c(C2(NC(=O)c3ccc4c(C5CCCCC5)c(-c5ccoc5)n(CC(=O)N5CCOCC5)c4c3)CCC2)nc2ccc(C=CC(=O)O)cc21: < 200 nM
- CN1CCN(C(=O)Cn2c(-c3ccoc3)c(C3CCCCC3)c3ccc(C(=O)NCc4ccncc4)cc32)CC1: 200 to 1000 nM
- O=C(NCc1ccccc1)c1ccc2c(C3CCCCC3)c(-c3ccoc3)n(CC(=O)N3CCOCC3)c2c1: 200 to 1000 nM
- Cc1nc(C2(NC(=O)c3ccc4c(C5CCCCC5)c(-c5ccoc5)n(CC(=O)N5CCC(N6CCCC6)CC5)c4c3)CCC2)cs1: < 200 nM
- CN1CCN(C(=O)Cn2c(-c3ccoc3)c(C3CCCCC3)c3ccc(C(=O)NCc4ccc(S(N)(=O)=O)cc4)cc32)CC1: < 200 nM
- CN1CCN(C(=O)Cn2c(-c3ccoc3)c(C3CCCCC3)c3ccc(C(=O)NC(C)(C)CO)cc32)CC1: 200 to 1000 nM
- NC(=O)C1(NC(=O)c2ccc3c(C4CCCCC4)c(-c4ccoc4)n(CC(=O)N4CCOCC4)c3c2)CCCC1: < 200 nM
- CN1CCN(C(=O)Cn2c(-c3ccoc3)c(C3CCCCC3)c3ccc(C(=O)NCc4ccco4)cc32)CC1: 200 to 1000 nM
